Sourced from patent US9980943B2

test system: β-galactosidase in CMV-LacZ C2C12 myotubes; test: CMV-LacZ secondary screen in C2C12 myotubes (β-Gal stabilizing assay); assay type: cell-based, mouse; conditions: 5 uM; C2C12 CMV-LacZ myotubes; fold relative to DMSO
CMV-LACZ in Myotubes, signal relative to DMSO less than 1 is y; CMV-LACZ in Myotubes, signal relative to DMSO greater than or equal to 1 is n.

COc1ccc2oc(C[S+]([O-])c3ccccc3)c(C(=O)O)c2c1 (stereo not drawn): y
Cn1c(O)c(C(C#N)=C2N=c3ccccc3=N2)c2ccccc21: y
O=C1Nc2ccccc2/C1=C/c1ccccc1F: n
CC(=O)Nc1ccc(N(C(=O)c2cnccn2)C(C(=O)NC2CCCCC2)c2ccc(F)cc2)cc1 (stereo not drawn): n
O=C(CCc1ccccc1)c1nnc(-c2ccccc2)o1: y
CCCN(C(=O)c1ccc(S(=O)(=O)N2CCCC2)cc1)C1CCS(=O)(=O)C1 (stereo not drawn): n
COc1cc(CNCc2ccc(C(=O)O)cc2)ccc1OCc1ccc(F)cc1.Cl: y
NS(=O)(=O)c1ccc(NC(=O)CN2CCc3ccccc32)cc1: n
Br.COc1ccc(C(=O)CN2CCCCC2)cc1: n
O=c1oc2c(-c3cccc(F)c3)cc(O)cc2s1: n
COC(=O)c1ccccc1NC(=O)c1cc[n+]([O-])cc1: y
N#C/C(=C/c1ccc(N2CCOCC2)o1)C(=O)Nc1ccccc1: n
CC1(C)Cc2c(c(N3CCOCC3)nc3sc(C(=O)Nc4ccccc4)c(N)c23)CO1: n
CC(C)(CC(=O)O)CC(=O)N1CCCN(c2nccc(C(F)(F)F)n2)CC1: y
CCc1ccc(Sc2cc(C(=O)NCCN3CCOCC3)c3ccccc3n2)cc1: y
CCc1ccc(S(=O)(=O)NCCOc2cccc3cccnc23)cc1: y
COC(=O)Cc1c(O)ccn(Cc2ccc3c(c2)OCO3)c1=O: y
O=C(COC(=O)Cn1cnc2ccccc21)Nc1cccc([N+](=O)[O-])c1: y
CCCc1nnc(SCC(=O)NC2CCCC2)n1CCOC: n
CCOc1ccccc1NC(=O)c1cccc2c1C(=O)N(C1CCCCC1)C2: y
c1ccc(-c2nn[nH]n2)nc1: y
COc1ccc(CCNC(=O)Cn2nnc(C(=O)Nc3ccc(Br)cc3)c2N)cc1OC: y
CNC(=S)N1CCC(NC(=O)C(Cc2ccc(F)cc2)NC(C)=O)CC1 (stereo not drawn): y
N#CC1=C2SCN(c3ccccc3)CN2C(=O)CC1c1cccs1 (stereo not drawn): n
COc1cc(Cl)cc(CN2CCC(CCC(=O)NC3CC3)CC2)c1OC: y
COc1cc(/C=C/CN2CCN(Cc3ccc(C)o3)C(CCO)C2)ccc1O (stereo not drawn): n
COc1ccc(C(=O)Nc2ccc(Cl)cn2)cc1Cl: n
CCOn1c(=O)c(-c2ccccc2)[n+]([O-])c2ccccc21: y
CCOC(=O)c1sc(=N)n(-c2ccc(OC)cc2)c1C: y
O=C(O)CCCNC(=O)CCn1nnc2ccccc2c1=O: y
CC(C)c1ccc(OC(=O)c2cccc(S(=O)(=O)N3CCN(C)CC3)c2)cc1: y
CC(OC(=O)c1cc(-c2cccnc2)nc2ccccc12)C(=O)Nc1ccc2ccccc2c1 (stereo not drawn): y
Cc1ccccc1-n1c(Cc2cccs2)n[nH]c1=S: n
